- Tgt: T1, L1-CAM recombinant protein (His Tag), human (human, UniProt P32004 20-1120)
- T1 construct: Bought protein; also called CD171; human L1-CAM; not shown: His tag
- Assay name: ELISA, human L1-CAM coated at 2 µg/ml
Property name: EC50 (µg/mL)

Binder	Property name	Assay result
LV5 (antibody, V domains shown, CE7-VH-chimeric + CE7-VL-chimeric-NL31L; chimeric CE7, human IgG1 kappa, L234A L235A P331S N297A; also called liability variant 5) VH: QVQLQQPGAELVKPGASVKLSCKASGYTFTGYWMHWVKQRPGHGLEWIGEINPSNGRTNYNERFKSKATLTVDKSSTTAFMQLSGLTSEDSAVYFCARDYYGTSYNFDYWGQGTTLTVSS VL: DIQMTQSSSSFSVSLGDRVTITCKANEDINLRLAWYQQTPGNSPRLLISGATNLVTGVPSRFSGSGSGKDYTLTITSLQAEDFATYYCQQYWSTPFTFGSGTELEIKR	EC50	0.0318
LV6 (antibody, V domains shown, CE7-VH-chimeric + CE7-VL-chimeric-NL31A; chimeric CE7, human IgG1 kappa, L234A L235A P331S N297A; also called liability variant 6) VH: QVQLQQPGAELVKPGASVKLSCKASGYTFTGYWMHWVKQRPGHGLEWIGEINPSNGRTNYNERFKSKATLTVDKSSTTAFMQLSGLTSEDSAVYFCARDYYGTSYNFDYWGQGTTLTVSS VL: DIQMTQSSSSFSVSLGDRVTITCKANEDINARLAWYQQTPGNSPRLLISGATNLVTGVPSRFSGSGSGKDYTLTITSLQAEDFATYYCQQYWSTPFTFGSGTELEIKR	EC50	0.0268
CE7-variant6 (antibody, V domains shown, Human IgG1 kappa, L234A L235A P331S; also called CE7-12-VHA-315-VLB; humanized variant 6) VH: QVQLVQSGAEVKKPGASVKVSCKASGYTFTGYWMHWVRQAPGQGLEWIGEINPSNGRTNYNERFKSRVTLTVDKSISTAYMELSRLRSDDTAVYFCARDYYGTSYNFDYWGQGTLVTVSS VL: EIVMTQSPATLSVSPGERATLSCRANEDINNRLAWYQQKPGQAPRLLISGATNLVTGIPARFSGSGSGKEFTLTISSLQSEDFAVYYCQQYWSTPFTFGQGTKLEIKR	EC50	0.0255
CE7-variant14 (antibody, V domains shown, Human IgG1 kappa, L234A L235A P331S; also called CE7-434-VHA-1NL1-VLB; humanized variant 14) VH: QVQLQQWGAGLLKPSETLSLTCAAYGYTFTGYWMHWIRQPPGKGLEWIGEINPSNGRTNYNERLKSRVTLSVDKSKNQASLKLSSVTAADTAVYFCARDYYGTSYNFDYWGQGTLVTVSS VL: DIQMTQSPSSLSASVGDRVTITCRANEDINNRLAWYQQKPGKAPKLLISGATNLVTGVPSRFSGSGSGKDYTLTISSLQPEDFATYYCQQYWSTPFTFGQGTKLEIKR	EC50	0.0157
CE7-variant20 (antibody, V domains shown, CE7-1-2-VHB + CE7-1-NL1-VLD; human IgG1 kappa, L234A L235A P331S N297A (aglycosylated); also called humanized variant 20) VH: QVQLVQSGAEVKKPGASVKVSCKASGYTFTGYWMHWVRQAPGQGLEWIGEINPSNGRTNYNERFQGRVTLTVDKSISTAYMELSRLRSDDTAVYYCARDYYGTSYNFDYWGQGTLVTVSS VL: DIQMTQSPSSLSASVGDRVTITCRASQGINNRLAWYQQKPGKAPKLLISGASNLVSGVPSRFSGSGSGKDYTLTISSLQPEDFATYYCQQYWSTPFTFGQGTKLEIKR	EC50	0.0317
LV8 (antibody, V domains shown, CE7-VH-chimeric + CE7-VL-chimeric-WL92F; chimeric CE7, human IgG1 kappa, L234A L235A P331S N297A; also called liability variant 8) VH: QVQLQQPGAELVKPGASVKLSCKASGYTFTGYWMHWVKQRPGHGLEWIGEINPSNGRTNYNERFKSKATLTVDKSSTTAFMQLSGLTSEDSAVYFCARDYYGTSYNFDYWGQGTTLTVSS VL: DIQMTQSSSSFSVSLGDRVTITCKANEDINNRLAWYQQTPGNSPRLLISGATNLVTGVPSRFSGSGSGKDYTLTITSLQAEDFATYYCQQYFSTPFTFGSGTELEIKR	EC50	0.0335
CE7-variant1 (antibody, V domains shown, Human IgG1 kappa, L234A L235A P331S; also called CE7-12-VHA-1NL1-VLA; humanized variant 1) VH: QVQLVQSGAEVKKPGASVKVSCKASGYTFTGYWMHWVRQAPGQGLEWIGEINPSNGRTNYNERFKSRVTLTVDKSISTAYMELSRLRSDDTAVYFCARDYYGTSYNFDYWGQGTLVTVSS VL: DIQMTQSPSSLSASVGDRVTITCKANEDINNRLAWYQQKPGKAPKLLISGATNLVTGVPSRFSGSGSGKDYTLTISSLQPEDFATYYCQQYWSTPFTFGQGTKLEIKR	EC50	0.0288
